Origin of values: patent US12491170B2

- Procedure Summary: Stability in liver microsomes, human

# Compound, Trep Concentration 60 min / µM
records = [
    ("CCCCCC(CCC1C(O)CC2Cc3c(cccc3OCC(=O)O)CC21)OC(=O)N1CCC(O)CC1 (stereo not shown)", 0),
    ("CCCCCC1CCC2C(CC3Cc4c(cccc4OCC(=O)O)CC32)OP(=O)(Oc2ccccc2)O1 (mixture of isomers)", 0),
    ("CCCCCC(CCC1C(O)CC2Cc3c(cccc3OCC(=O)O)CC21)OC(=O)COc1ccccc1 (stereo not shown)", 0.351),
    ("CCCCCC(CCC1C(O)CC2Cc3c(cccc3OCC(=O)O)CC21)OC(=O)c1ccc(C(F)(F)F)cc1 (stereo not shown)", 0.206),
    ("CCCCCC(CCC1C(O)CC2Cc3c(cccc3OCC(=O)O)CC21)OC(=O)C(N)CCCCN (stereo not shown)", 0.0539),
    ("CCCCCC(CCC1C(O)CC2Cc3c(cccc3OCC(=O)O)CC21)OC(=O)c1ccc(OC(F)(F)F)cc1 (stereo not shown)", 0.275),
    ("CCCCCC(CCC1C(O)CC2Cc3c(cccc3OCC(=O)O)CC21)OC (stereo not shown)", 0.292),
    ("CCCCCC(CCC1C(O)CC2Cc3c(cccc3OCC(=O)O)CC21)OCC (stereo not shown)", 0.124),
    ("CCCCCC(CCC1C(O)CC2Cc3c(cccc3OCC(=O)O)CC21)OC(=O)c1ccc(C)cc1 (stereo not shown)", 0.352),
    ("CCCCCC(CCC1C(O)CC2Cc3c(cccc3OCC(=O)O)CC21)OC(=O)c1cccc(O)c1 (stereo not shown)", 0.0865),
    ("CCCCCC(CCC1C(O)CC2Cc3c(cccc3OCC(=O)O)CC21)OC(=O)OC(C)C (stereo not shown)", 0.27),
    ("CCCCCC(O)CCC1C(OC)CC2Cc3c(cccc3OCC(=O)O)CC21 (stereo not shown)", 0.0354),
    ("CCCCCC(CCC1C(O)CC2Cc3c(cccc3OCC(=O)O)CC21)OC(=O)N1CCCCC1 (stereo not shown)", 0.022),
]
